- assay: Inhibition the IL-6 secretion stimulated at a concentration of 10 ng/ml in osteoblastic MC3T3-E 1 cells.
- Type: functional
- experimental-setup: Mus musculus, MC3T3-E1
readout-name: IC50 (µg/mL)

Example cases with answers are listed next.
# smiles-text, value-unit, numeric-result
records = [
    ("COc1ccc(-c2nc(N)sc2C)cc1", "µg/mL", 7),
    ("Cc1sc(N)nc1-c1cccc(Cl)c1", "µg/mL", 2.5),
]

A. Cc1sc(N)nc1-c1ccccc1
B. CCOC(=O)c1sc(C)nc1-c1ccccc1
// query Endpoint returns whichever of A and B has the numerically higher IC50. Answer with the label corresponding to your selection.
// result B
(B: 40 µg/mL, A: 10 µg/mL)

A. CCOC(=O)c1sc(N)nc1-c1ccccc1
B. Cc1sc(N)nc1-c1ccc(F)cc1
C. Cc1sc(N)nc1-c1ccc(-c2ccccc2)cc1
D. Cc1sc(N)nc1-c1ccc(C(F)(F)F)cc1
// query List these items ordered by IC50, big to small. In your reply, arrange the labels in the requested order.
// result C, B, A, D
(C: 39 µg/mL, B: 27 µg/mL, A: 6 µg/mL, D: 3 µg/mL)

1. CCOC(=O)c1sc(N)nc1-c1ccc(Cl)cc1
2. Cc1sc(N)nc1-c1ccccc1Cl
3. Cc1sc(N)nc1-c1ccc(Cl)c(Cl)c1
4. Cc1ccc(-c2nc(N)sc2C)cc1
5. Cc1sc(N)nc1-c1ccc(O)cc1
// query List these items ordered by IC50, big to small. In your reply, arrange the labels in the requested order.
// result 2, 3, 4, 1, 5
(2: 50 µg/mL, 3: 35 µg/mL, 4: 24 µg/mL, 1: 6 µg/mL, 5: 1 µg/mL)

I. CCCNC(=O)c1sc(N)nc1-c1ccccc1
II. Nc1nc(-c2ccccc2)cs1
III. Cc1sc(N)nc1-c1ccc(Cl)cc1Cl
IV. CCOC(=O)c1sc(-c2ccncc2)nc1-c1ccccc1
// query List these items ordered by IC50, big to small. In your reply, arrange the labels in the requested order.
// result IV, II, I, III
(IV: 90 µg/mL, II: 60 µg/mL, I: 40 µg/mL, III: 8 µg/mL)

1. CNc1sc(N)nc1-c1ccccc1
2. Nc1nc(-c2ccc(Cl)cc2)c(C(=O)O)s1
3. Cc1sc(N)nc1-c1ccc(Cl)cc1
// query List these items ordered by IC50, big to small. In your reply, arrange the labels in the requested order.
// result 1, 2, 3

###

- assay: Inhibition the IL-6 secretion stimulated at a concentration of 10 ng/ml in osteoblastic MC3T3-E 1 cells.
- Format: functional
- experimental-setup: Mus musculus, MC3T3-E1
readout-name: IC50 (µg/mL)

# smiles-text, value-unit, IC50
measured = [
    ("CCOC(=O)c1sc(NC)nc1-c1ccccc1", "µg/mL", 40),
    ("CCOC(=O)c1scnc1-c1ccccc1", "µg/mL", 30),
]

###

- assay: Inhibition the IL-6 secretion stimulated at a concentration of 10 ng/ml in osteoblastic MC3T3-E 1 cells.
- Assay type: functional
- experimental-setup: Mus musculus, MC3T3-E1
Consider the following molecules and their measured IC50 readings.

Example cases with answers are listed next.
# smiles-text, IC50
rows = [
    ("CCOC(=O)c1sc(NC=O)nc1-c1ccccc1", "> 100 µg/mL"),
    ("CCc1sc(N)nc1-c1ccccc1", "> 100 µg/mL"),
]

From here, focus on the item given below.
The molecule listed as Nc1nc(-c2ccccc2)c(C(=O)O)s1 has a reported IC50 of > 100 µg/mL
